Target: T1, human Dll1 (human, UniProt O00548 18-723)
T1 construct: whole, on cells
T1 sequence (looked up): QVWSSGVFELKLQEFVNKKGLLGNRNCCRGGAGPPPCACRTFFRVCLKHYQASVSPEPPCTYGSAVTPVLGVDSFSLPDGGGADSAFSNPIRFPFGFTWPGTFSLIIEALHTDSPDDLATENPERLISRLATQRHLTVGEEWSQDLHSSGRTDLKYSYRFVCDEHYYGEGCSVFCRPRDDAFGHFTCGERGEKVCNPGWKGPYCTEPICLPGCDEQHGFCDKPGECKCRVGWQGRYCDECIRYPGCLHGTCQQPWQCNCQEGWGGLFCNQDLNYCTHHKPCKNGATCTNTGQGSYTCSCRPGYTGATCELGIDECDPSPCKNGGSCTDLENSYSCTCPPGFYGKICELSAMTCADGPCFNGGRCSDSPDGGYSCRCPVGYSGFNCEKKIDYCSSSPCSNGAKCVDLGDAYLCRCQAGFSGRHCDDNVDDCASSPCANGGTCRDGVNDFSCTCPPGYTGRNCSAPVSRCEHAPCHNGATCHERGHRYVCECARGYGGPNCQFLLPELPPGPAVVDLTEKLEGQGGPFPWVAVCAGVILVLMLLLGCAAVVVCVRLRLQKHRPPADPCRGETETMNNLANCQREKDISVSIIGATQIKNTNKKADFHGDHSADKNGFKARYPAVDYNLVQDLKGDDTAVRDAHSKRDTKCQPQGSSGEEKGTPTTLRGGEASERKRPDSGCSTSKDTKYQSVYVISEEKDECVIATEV
Experiment: FACS, 15 µg/ml, 293T cells with human Dll1
EXPERIMENTAL_READOUT: Dll1/293T X Geo mean
Numbers only.

// solved cases for Dll1/293T X Geo mean follow
4B4 (antibody, IgG4, V domains shown, Fully human; used for IgG4 rows and where no isotype is printed; also called 4B4 IgG4; 4B4.1) VH: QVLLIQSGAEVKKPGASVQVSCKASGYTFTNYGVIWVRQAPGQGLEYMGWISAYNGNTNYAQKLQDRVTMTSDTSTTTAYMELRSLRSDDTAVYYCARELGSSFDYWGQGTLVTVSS VL: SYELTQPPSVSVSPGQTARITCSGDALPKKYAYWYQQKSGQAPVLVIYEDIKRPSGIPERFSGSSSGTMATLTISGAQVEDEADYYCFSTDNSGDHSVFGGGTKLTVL
25.9
3A7 (antibody, IgG4, V domains shown, Fully human; also used where no isotype is printed) VH: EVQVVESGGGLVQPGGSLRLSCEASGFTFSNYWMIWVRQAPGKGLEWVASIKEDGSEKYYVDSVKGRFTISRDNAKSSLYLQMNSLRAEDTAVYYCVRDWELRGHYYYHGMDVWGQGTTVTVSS VL: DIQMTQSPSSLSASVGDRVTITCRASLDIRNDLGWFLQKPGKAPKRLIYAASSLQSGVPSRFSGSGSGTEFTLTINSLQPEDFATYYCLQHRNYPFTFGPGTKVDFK
36.8

Proceed to the following item.
For record 12A1 (antibody, IgG4, V domains shown, Fully human; also used where no isotype is printed) VH: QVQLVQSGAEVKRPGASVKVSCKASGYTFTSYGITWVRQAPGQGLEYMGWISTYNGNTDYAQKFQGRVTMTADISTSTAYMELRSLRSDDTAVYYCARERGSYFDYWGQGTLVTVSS VL: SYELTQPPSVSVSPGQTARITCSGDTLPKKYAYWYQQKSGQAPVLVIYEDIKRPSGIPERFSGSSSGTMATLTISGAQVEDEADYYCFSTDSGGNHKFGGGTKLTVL the listed Dll1/293T X Geo mean is 47
